Test: NCI Yeast Anticancer Drug Screen. Data for the cln2 rad14 strain (AID 165);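 note: 0% = growth equal to vehicle treated cultures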
Conditions: S. cerevisiae cln2 rad14 strain, at 50.0 µM, active compounds read high
About 79,000 compounds went through this panel and 15% of them were active in at least one assay; those are over-represented in the sample as a whole.
Known growth inhibition of a selection of compounds
Give just the number in %; leave the unit off.

The examples below pair each entry with its known result.
COMPOUND: NCC1OC(OC2C(CO)OC(OC3C(O)C(N)CC(N)C3OC3OC(CN)C(O)C(O)C3N)C2O)C(N)C(O)C1O (stereo unspecified)
growth inhibition / %: 3

COMPOUND: C=CC12CN(C)C3C4COC(CC41)C1(C(=O)Nc4ccccc41)C32 (stereo unspecified)
growth inhibition / %: -13.5

COMPOUND: O=C(NP(=O)(N1CC1)N1CC1)c1cc(I)ccc1I
growth inhibition / %: -27.7

COMPOUND: NC(CCCCCP(=O)(O)O)C(=O)O (stereo unspecified)
growth inhibition / %: -12.3

COMPOUND: COC(=O)C1(C(=O)OC)ON1C(C)(C)C (stereo unspecified)
growth inhibition / %: -57.8

COMPOUND: COc1ccc(CN2CCCN(Cc3ccc(OC)cc3OC)C2c2ccc(N(CCCl)CCCl)cc2)c(OC)c1
growth inhibition / %: 30.3

COMPOUND: CN(C)CCN(C)C.[C-]#[O+].[C-]#[O+].[C-]#[O+].[C-]#[O+].[W+2]
growth inhibition / %: -51.1

COMPOUND: COC(=O)[C@H]1[C@@H](O)[C@@]2(O)c3c(OC)cc(OC)cc3O[C@@]2(c2ccc3c(c2)OCO3)[C@@H]1c1ccccc1
growth inhibition / %: 90.2

Reported growth inhibition for C=CCc1cc(-c2cc(CC=C)c(O)c(CN(CCCl)CCCl)c2)cc(CN(CCCl)CCCl)c1O : what is it? 43.1

Reported growth inhibition for CC1N=NNN1C (stereo unspecified) : what is it? -5.9

Reported growth inhibition for Nc1ccccc1C(=O)Oc1ccccn1 : what is it? 13.6

---

Experiment: NCI Yeast Anticancer Drug Screen. Data for the mlh1 rad18 strain (AID 175)
Conditions: S. cerevisiae mlh1 rad18 strain growth inhibition; at 5.0 µM (retest, dose inferred, filed as 0.5)
This is part of a sample that, as a whole, favours compounds with a hit. Of some 79,000 tested, about 15% had one in any assay. Activity calls are given as the source filed them. Rule as the data show it: active = growth inhibition above about 70%; inactive = the rest.
Outcomes you can answer with include only these: true (1) for active, false (0) for inactive

Before answering, review these 5 worked examples.
MOLECULE: CCOC(=O)c1ccc(NP(=O)(Oc2ccccc2)Oc2ccccc2)cc1
CLASSIFICATION: false (0)
//
MOLECULE: Sc1ccccc1.[Ag]
CLASSIFICATION: false (0)
//
MOLECULE: C[n+]1c(/C=C/c2ccc(O)c3ccccc23)[se]c2ccccc21
CLASSIFICATION: false (0)
//
MOLECULE: O=C(O)C(F)(F)C(F)(F)C(=O)O
CLASSIFICATION: false (0)
//
MOLECULE: N#CC1CC[CH-]CC1.[Cl-].[Cl-].[Cl-].[Cl-].[Cl-].[Sb+5].c1ccncc1
CLASSIFICATION: false (0)

Would you kindly look at the next entry?
Name the outcome recorded for COC1CC(OC2C(C)OC(OC3C(C)OC(OC4CCC5(C)C(=CCC6(O)C5CC(OC(=O)c5ccc(O)cc5)C5(C)C(O)(C(C)=O)CCC65O)C4)CC3OC)CC2OC)OC(C)C1O (stereo not given) (tested in a mixture with another compound) in the assay. false (0)

---

Known growth inhibition of a selection of molecules
Experiment: NCI Yeast Anticancer Drug Screen. Data for the bub3 strain (AID 167)
Details: S. cerevisiae bub3 mutant strain, at 50.0 µM, active compounds read high
Compounds without any hit were thinned out: in the full panel of roughly 79,000, 15% have a hit.
Give just the number in %; leave the unit off.

MOLECULE: Nc1ccc(C(=O)Nc2ccc([As](=O)(O)O)cc2)cc1
MEASUREMENT_KIND: growth inhibition
NUMERIC_RESULT: 5.4
//
MOLECULE: NC(=O)c1ccc([As](O)O)cc1N
MEASUREMENT_KIND: growth inhibition
NUMERIC_RESULT: -11.5
//
MOLECULE: COP(=O)(Cc1ccccc1)OC
MEASUREMENT_KIND: growth inhibition
NUMERIC_RESULT: 2.3
//
MOLECULE: O=S(=O)(CCBr)CCBr
MEASUREMENT_KIND: growth inhibition
NUMERIC_RESULT: 83.2
//
MOLECULE: CCOC(OC1=C(C#N)CCCC1)C(CC)[Se]c1ccccc1 (stereo not drawn)
MEASUREMENT_KIND: growth inhibition
NUMERIC_RESULT: 44.1
//
MOLECULE: COCC#CCN(C)C
MEASUREMENT_KIND: growth inhibition
NUMERIC_RESULT: 9.95

Reported growth inhibition for Nc1ccc(S(=O)(=O)c2ccc(NCN3C(=O)NC(=O)C(=O)C3=O)cc2)cc1 : what is it? 13.6

Reported growth inhibition for CC1C2Cc3ccc(O)cc3C1(C)CCN2CCC(=O)c1ccccc1 (stereo not drawn) : what is it? 5.6

Reported growth inhibition for c1ccc2c(c1)Nc1ccccc1S2 : what is it? 28.5

Reported growth inhibition for CC[As](=O)(O)c1ccc(I)cc1 : what is it? 12.8

Reported growth inhibition for NC(=O)Cc1ccc([As]=O)cc1 (stereo not drawn) : what is it? 6.85

Reported growth inhibition for CCC(C(=O)NC1CN2CCC1CC2)c1ccccc1 (stereo not drawn) : what is it? -2.6

Reported growth inhibition for COc1ccc2c3c1O[C@]1(C)C34CCN(C)C(C2)C42C=C[C@@]1(OC)c1c(O)ccc(O)c12 : what is it? -10.6

---

Known growth inhibition of a selection of compounds
Assay: NCI Yeast Anticancer Drug Screen. Data for the mlh1 rad18 strain (AID 175)
Details: S. cerevisiae mlh1 rad18 strain growth inhibition; at 50.0 µM; active compounds read high
Experimental: Growth inhibition of yeast strains with defined genetic alterations is measured as a screen for potential anti-cancer activity. Selected strains with alterations in DNA damage repair or cell cycle control were exposed to compounds and growth inhibition was measured relative to vehicle treated controls. The strain used in this assay is mlh1 rad18
This is part of a sample that, as a whole, favours compounds with a hit. Of some 79,000 tested, about 15% had one in any assay.
Give just the number in %; leave the unit off.

The examples below pair each entry with its known result.
COMPOUND: O=C(COc1ccc(Cl)c(Cl)c1)Nc1ccc[n+](Cc2ccc(Cl)c(S(=O)(=O)F)c2)c1
UNITS_OF_MEASURE: %
NUMERIC_RESULT: 98.5

COMPOUND: Cc1cccc(C(=O)[O][Pb]([CH3])([CH3])[CH3])c1
UNITS_OF_MEASURE: %
NUMERIC_RESULT: 36.2

COMPOUND: ClCCN(Cc1ccccc1)CC1COc2ccccc2O1 (configuration not stated)
UNITS_OF_MEASURE: %
NUMERIC_RESULT: 97.3

COMPOUND: N#CCCCBr
UNITS_OF_MEASURE: %
NUMERIC_RESULT: 11.8

COMPOUND: C(#Cc1ccccc1)c1ccccc1.[C-]#[O+].[C-]#[O+].[C-]#[O+].[C-]#[O+].[C-]#[O+].[C-]#[O+].[Co].[Co]
UNITS_OF_MEASURE: %
NUMERIC_RESULT: 53.2

COMPOUND: CCC(=O)O.[Ag]
UNITS_OF_MEASURE: %
NUMERIC_RESULT: 90.3

COMPOUND: [I][Hg][CH2]C1OCCOC1[CH2][Hg][I] (configuration not stated)
UNITS_OF_MEASURE: %
NUMERIC_RESULT: 99.2

COMPOUND: CC1CCC2NCCNC2C1 (configuration not stated)
UNITS_OF_MEASURE: %
NUMERIC_RESULT: 23.4

Reported growth inhibition for COP(=O)(OC)C(N)CCSC (configuration not stated) : what is it? -2.1

Reported growth inhibition for Cc1cc(N(CCCl)CCCl)ccc1CN1CCCN(Cc2ccc(N(CCCl)CCCl)cc2C)C1c1cc(O)cc(Br)c1 : what is it? 37.9

Reported growth inhibition for O=[N+]([O-])c1cc(/C=N\NC(=S)NC2CN3CCC2CC3)ccc1Cl (configuration not stated) : what is it? 2.4

Reported growth inhibition for O=C(Nc1ccc(Cl)cc1C(=O)c1ccccc1)c1ccc(Cl)cc1 : what is it? 9.55

---

Experiment: NCI Yeast Anticancer Drug Screen. Data for the sgs1 mgt1 strain (AID 161);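 note: 0% = growth of cultures given vehicle only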
Settings: S. cerevisiae sgs1 mgt1 strain, at 50.0 µM (retest, dose inferred, filed as 5.0), active compounds read high
This is part of a sample that, as a whole, favours compounds with a hit. Of some 79,000 tested, about 15% had one in any assay.
Known growth inhibition of a selection of compounds
Give just the number in %; leave the unit off.

The examples below pair each entry with its known result.
COMPOUND_STRING: CC(C)c1ccc(C(c2c(O)c3ccccc3oc2=O)c2c(O)c3ccccc3oc2=O)cc1
NUMERIC_RESULT: 95
//
COMPOUND_STRING: Cc1ccc(OP(=O)(Oc2ccc(C)cc2)Oc2ccc(C)cc2)cc1.Cc1ccc(OP(=O)(Oc2ccc(C)cc2)Oc2ccc(C)cc2)cc1.Cc1ccc(OP(=O)(Oc2ccc(C)cc2)Oc2ccc(C)cc2)cc1.Cc1ccc(OP(=O)(Oc2ccc(C)cc2)Oc2cccc(C)c2)cc1.[Cd+2].[O-][Cl+3]([O-])([O-])O
NUMERIC_RESULT: 29
//
COMPOUND_STRING: O=C(CCCc1ccccc1)[O][Hg][c]1ccccc1
NUMERIC_RESULT: 99

Reported growth inhibition for N#CC(C#N)=NNc1cccc(Cl)c1Cl : what is it? 100
